Biological target: TDO in A172 cells (Homo sapiens)
Construct: endogenous in cells; host or cells: A172 cells
Test: TDO cell-based assay, kynurenine production in A172 cells
Conditions: A 172; final concentration of the compound 10 μM; rate relative to culture without compound
Where a name gives a salt, the structure may show the parent alone.
Measured remaining activity at 10 µM values are reported for all entries that follow.

Task: Need remaining activity at 10 µM of N/C(=N\c1cccc(Br)c1)SCc1cc(Cl)c(Cl)cc1CS/C(N)=N/c1cccc(Br)c1 [Compound 136, dihydrobromide] , thanks.
Output: 3%

Task: Need remaining activity at 10 µM of N/C(=N\c1ccc(Cl)cc1)SCc1cc(F)c(F)cc1CS/C(N)=N/c1ccc(Cl)cc1 [Compound 132, dihydrobromide] , thanks.
Output: 5%

Task: Need remaining activity at 10 µM of Br.N#Cc1ccc(CNC(=O)c2cc(Br)ccc2CSC(=N)N)cc1 [Compound 103, hydrobromide] , thanks.
Output: 18%

Task: Need remaining activity at 10 µM of N#Cc1ccc(CNC(=O)c2ccc(Br)cc2C[Se]C(=N)N)cc1 [Compound 113, hydrobromide] , thanks.
Output: 44%

Task: Need remaining activity at 10 µM of N/C(=N\c1ccc(F)c(Cl)c1)SCc1cc(Br)ccc1C(=O)NCc1ccc(Cl)cc1 [Compound 83, hydrobromide] , thanks.
Output: 21%

Task: Need remaining activity at 10 µM of N=C(N)[Se]Cc1nc2ccccc2nc1C[Se]C(=N)N [Compound 112, dihydrobromide] , thanks.
Output: 5%

Moving on to the next molecule.
Task: Need remaining activity at 10 µM of "Fc1ccc(CSC2=NCN(CC3CC3)CN2)c(CSC2=NCN(CC3CC3)CN2)c1" , thanks.
Output: 7%

---

Measured remaining activity at 10 µM values are reported for all entries that follow.
Biological target: TDO in A172 cells (Homo sapiens, UniProt P48775)
Construct: endogenous in cells; host or cells: A172 cells
Sequence (P48775 whole entry): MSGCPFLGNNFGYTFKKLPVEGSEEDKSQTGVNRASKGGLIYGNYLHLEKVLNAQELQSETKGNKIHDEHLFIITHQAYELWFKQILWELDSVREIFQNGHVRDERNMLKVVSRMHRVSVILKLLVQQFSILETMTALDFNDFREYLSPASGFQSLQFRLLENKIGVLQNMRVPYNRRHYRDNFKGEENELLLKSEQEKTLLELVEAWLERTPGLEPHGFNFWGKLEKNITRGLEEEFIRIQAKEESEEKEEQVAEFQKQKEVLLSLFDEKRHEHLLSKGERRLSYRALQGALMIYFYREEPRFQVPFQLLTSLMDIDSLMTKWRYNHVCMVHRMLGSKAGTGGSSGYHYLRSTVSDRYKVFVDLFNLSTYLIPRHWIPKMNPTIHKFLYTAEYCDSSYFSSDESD
Test: TDO cell-based assay, kynurenine production in A172 cells
Details: A 172; final concentration of the compound 10 μM; rate relative to culture without compound
Structures can show the parent of a compound that is named as a salt.
I only need the number, in %, no unit after it.

Task: Need remaining activity at 10 µM of "Clc1ccc(CN2CN=C(SCc3ccccc3CSC3=NCN(Cc4ccc(Cl)cc4)CN3)NC2)cc1" , thanks.
Output: 4

Task: Need remaining activity at 10 µM of N#Cc1ccc(CNC(=O)c2ccccc2C[Se]C(=N)N)cc1 [Compound 104, hydrobromide] , thanks.
Output: -1

Task: Need remaining activity at 10 µM of N#Cc1ccc(CNC(=O)Cc2ccccc2CSC(=N)N)cc1 [Compound 67, hydrobromide] , thanks.
Output: 64

Task: Need remaining activity at 10 µM of N=C(N)SCc1cc(Br)ccc1C(=O)NCC1CCCCC1 [Compound 74, hydrobromide] , thanks.
Output: 47

Task: Need remaining activity at 10 µM of "c1csc(CCN2CN=C(SCc3ccccc3CSC3=NCN(CCc4cccs4)CN3)NC2)c1" , thanks.
Output: 1

Moving on to the next compound.
Task: Need remaining activity at 10 µM of "Clc1cc(CSC2=NCN(CC3CC3)CN2)c(CSC2=NCN(CC3CC3)CN2)cc1Cl" , thanks.
Output: -3

---

Measured remaining activity at 10 µM values are reported for all entries that follow.
Biological target: rhIDO (recombinant human IDO) (Homo sapiens, UniProt P14902)
Sequence (P14902 whole entry): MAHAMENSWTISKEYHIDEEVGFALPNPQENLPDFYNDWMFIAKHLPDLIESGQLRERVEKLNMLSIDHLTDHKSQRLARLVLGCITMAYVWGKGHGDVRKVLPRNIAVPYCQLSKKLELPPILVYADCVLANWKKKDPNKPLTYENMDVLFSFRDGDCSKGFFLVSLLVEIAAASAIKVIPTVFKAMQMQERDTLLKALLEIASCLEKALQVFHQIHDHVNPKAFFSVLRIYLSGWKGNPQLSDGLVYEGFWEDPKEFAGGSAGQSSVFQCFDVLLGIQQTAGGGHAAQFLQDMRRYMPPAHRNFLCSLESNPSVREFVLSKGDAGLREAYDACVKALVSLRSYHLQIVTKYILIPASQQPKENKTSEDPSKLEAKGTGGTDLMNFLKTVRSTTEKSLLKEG
Assay: Enzyme assay using rhIDO (rate of kynurenine production)
Format: biochemical
Conditions: 2 h; final concentration of the compound 10 μM; rate relative to reaction without compound; read-out: rhIDO-mediated kynurenine production
Counter-ions that a name gives are not always drawn.
I only need the number, in %, no unit after it.

Task: Need remaining activity at 10 µM of Br.Br.N=C(N)SCc1ccc(Br)cc1CSC(=N)N [Compound 10, dihydrobromide] , thanks.
Output: 1

Task: Need remaining activity at 10 µM of "c1ccc(CCN2CN=C(SCc3ccccc3CSC3=NCN(CCc4ccccc4)CN3)NC2)cc1" , thanks.
Output: 30

Task: Need remaining activity at 10 µM of N/C(=N\c1cccc(Br)c1)SCc1cc(Cl)c(Cl)cc1CS/C(N)=N/c1cccc(Br)c1 [Compound 136, dihydrobromide] , thanks.
Output: -2

Task: Need remaining activity at 10 µM of COCCNC(=O)c1ccc(Br)cc1CSC(=N)N [Compound 115, hydrobromide] , thanks.
Output: 91

Task: Need remaining activity at 10 µM of CNC(=O)Cc1ccccc1CS/C(N)=N/c1ccc(Br)cc1 [Compound 79, hydrobromide] , thanks.
Output: 90

Next:
Task: Need remaining activity at 10 µM of N=C(N)SCc1cccnc1CSC(=N)N [Compound 34, dihydrobromide] , thanks.
Output: 25

Task: Need remaining activity at 10 µM of "c1ccc(CN2CN=C(SCc3ccccc3CSC3=NCN(Cc4ccccc4)CN3)NC2)cc1" , thanks.
Output: 52

---

Molecular target: IDO in A431 cells (Homo sapiens, UniProt P14902)
Construct: endogenous in cells; host or cells: A431 cells, IFN-γ stimulated
Sequence (P14902 whole entry): as the sequence (P14902 whole entry) above
Test: IDO cell-based assay, kynurenine production in IFN-γ stimulated A431 cells
Conditions: A-431, 24 h; final concentration of the compound 10 μM; rate relative to culture without compound
Counter-ions that a name gives are not always drawn.
remaining activity at 10 µM less than 8% is MET; remaining activity at 10 µM greater than or equal to 8% is NOT MET.

Task: Problem: For the compound COc1ccc(/N=C(\N)SCc2cc(Cl)c(Cl)cc2CS/C(N)=N/c2ccc(OC)cc2)cc1 [Compound 124, dihydrobromide] , is remaining activity at 10 µM under 8%?
Output: NOT MET

Task: Problem: For the compound CNC(=O)c1ncccc1CSC(=N)N [Compound 98, hydrobromide] , is remaining activity at 10 µM under 8%?
Output: NOT MET

Task: Problem: For the compound N=C(N)SCc1cc(Br)ccc1C(=O)NCc1ccc(Cl)c(Cl)c1 [Compound 94, hydrobromide] , is remaining activity at 10 µM under 8%?
Output: NOT MET

Task: Problem: For the compound "Cc1ccc(CCN2CN=C(SCc3ccccc3CSC3=NCN(CCc4ccc(C)c(C)c4)CN3)NC2)cc1C" , is remaining activity at 10 µM under 8%?
Output: MET

Next:
Task: Problem: For the compound N=C(N)SCc1cc(Br)ccc1C(=O)NCc1ccc(C(F)(F)F)cc1 [Compound 114, hydrobromide] , is remaining activity at 10 µM under 8%?
Output: NOT MET

Task: Problem: For the compound N/C(=N\c1ccc(F)c(Cl)c1)SCc1ccccc1CS/C(N)=N/c1ccc(F)c(Cl)c1 [Compound 122, dihydrobromide] , is remaining activity at 10 µM under 8%?
Output: MET

Task: Problem: For the compound N=C(N)SCc1ccccc1CC(=O)NCCc1ccccc1 [Compound 64, hydrobromide] , is remaining activity at 10 µM under 8%?
Output: NOT MET

Task: Problem: For the compound N=C(N)SCc1ccc(Br)cc1C(=O)NCc1ccc(Br)cc1 [Compound 117, hydrobromide] , is remaining activity at 10 µM under 8%?
Output: MET

Task: Problem: For the compound COCCNC(=O)c1ccc(Br)cc1CSC(=N)N [Compound 115, hydrobromide] , is remaining activity at 10 µM under 8%?
Output: NOT MET

Task: Problem: For the compound N=C(N)SCc1cc(Br)ccc1C(=O)NCC1CCCCC1 [Compound 74, hydrobromide] , is remaining activity at 10 µM under 8%?
Output: NOT MET

Task: Problem: For the compound c1ccc(CS/C(=N/C2CCCCC2)NC2CCCCC2)c(CS/C(=N/C2CCCCC2)NC2CCCCC2)c1 [Compound 58, dihydrobromide] , is remaining activity at 10 µM under 8%?
Output: MET

Task: Problem: For the compound Br.Br.N=C(N)SCc1ccc(F)cc1CSC(=N)N [Compound 2, dihydrobromide] , is remaining activity at 10 µM under 8%?
Output: MET

Task: Problem: For the compound "FC(F)(F)c1ccc(CCN2CN=C(SCc3cc(Cl)c(Cl)cc3CSC3=NCN(CCc4ccc(C(F)(F)F)cc4)CN3)NC2)cc1" , is remaining activity at 10 µM under 8%?
Output: NOT MET

Task: Problem: For the compound Cc1ccc(CNC(=O)c2ccc(Br)cc2CSC(=N)N)cc1 [Compound 90, hydrobromide] , is remaining activity at 10 µM under 8%?
Output: NOT MET

Task: Problem: For the compound N=C(N)SCc1ccccc1CC(=O)NCCc1ccc(Cl)cc1 [Compound 68, hydrobromide] , is remaining activity at 10 µM under 8%?
Output: NOT MET

---

Target: rhTDO (recombinant human TDO) (Homo sapiens, UniProt P48775)
Test: Enzyme assay using rhTDO (rate of kynurenine production)
Format: biochemical
Conditions: 2 h; final concentration of the compound 10 μM; rate relative to reaction without compound; read-out: rhTDO-mediated kynurenine production
Where a name gives a salt, the structure may show the parent alone.
ENDPOINT NAME: remaining activity at 10 µM (%)
I only need the number, in %, no unit after it.

Task: Need remaining activity at 10 µM of N/C(=N\c1ccc(F)c(Cl)c1)SCc1cc(Br)ccc1C(=O)NCc1ccc(Cl)cc1 [Compound 83, hydrobromide] , thanks.
Output: 59

Next:
Task: Need remaining activity at 10 µM of N=C(N)[Se]Cc1nc2ccccc2nc1C[Se]C(=N)N [Compound 112, dihydrobromide] , thanks.
Output: 90

Task: Need remaining activity at 10 µM of N/C(=N\c1ccc(F)c(Cl)c1)SCc1cc(Cl)c(Cl)cc1CS/C(N)=N/c1ccc(F)c(Cl)c1 [Compound 134, dihydrobromide] , thanks.
Output: 5

Task: Need remaining activity at 10 µM of c1ccc(CS/C(=N/C2CCCCC2)NC2CCCCC2)c(CS/C(=N/C2CCCCC2)NC2CCCCC2)c1 [Compound 58, dihydrobromide] , thanks.
Output: 83

Task: Need remaining activity at 10 µM of N=C(N)SCc1cc(Br)ccc1C(=O)NCc1ccc(F)c(Cl)c1 [Compound 116, hydrobromide] , thanks.
Output: 21

Task: Need remaining activity at 10 µM of N=C(N)SCc1ccccc1CC(=O)NCCC1CCCCC1 [Compound 69, hydrobromide] , thanks.
Output: 60

Task: Need remaining activity at 10 µM of "Brc1ccc(CSC2=NCN(CC3CC3)CN2)c(CSC2=NCN(CC3CC3)CN2)c1" , thanks.
Output: 15

Task: Need remaining activity at 10 µM of N=C(N)SCc1c(F)c(F)c(F)c(F)c1CSC(=N)N [Compound 6, dihydrobromide] , thanks.
Output: 9

Task: Need remaining activity at 10 µM of COc1cccc(CNC(=O)c2ccc(Br)cc2C[Se]C(=N)N)c1 [Compound 106, hydrobromide] , thanks.
Output: 98

Task: Need remaining activity at 10 µM of "FC(F)(F)c1ccc(CCN2CN=C(SCc3ccccc3CSC3=NCN(CCc4ccc(C(F)(F)F)cc4)CN3)NC2)cc1" , thanks.
Output: 18

Task: Need remaining activity at 10 µM of "Brc1ccc(CSC2=NCN(CC3CCCCC3)CN2)c(CSC2=NCN(CC3CCCCC3)CN2)c1" , thanks.
Output: 5

Task: Need remaining activity at 10 µM of "FC(F)(F)c1ccc(CCN2CN=C(SCc3cc(Cl)c(Cl)cc3CSC3=NCN(CCc4ccc(C(F)(F)F)cc4)CN3)NC2)cc1" , thanks.
Output: 6

Task: Need remaining activity at 10 µM of "COc1ccc(CN2CN=C(SCc3ccccc3CSC3=NCN(Cc4ccc(OC)cc4)CN3)NC2)cc1" , thanks.
Output: 44

Task: Need remaining activity at 10 µM of "O=C1CC(=O)NC(SCc2ccccc2CSC2=NC(=O)CC(=O)N2)=N1" , thanks.
Output: 126

Task: Need remaining activity at 10 µM of Cc1ccc(CNC(=O)c2ccc(Br)cc2CSC(=N)N)cc1 [Compound 90, hydrobromide] , thanks.
Output: 45
